Assignment: determine reported cell viability for the given molecules.
tested on: HepG2; assay: cell viability relative to DMSO; higher = less toxic; conditions: 72 h; 1 nM
The response must be a number in % with no trailing unit.

Name the recorded cell viability for CC(C)N(CC[C@H](c1ccccc1)c1cc(CO)ccc1O)C(C)C [5-hydroxymethyl-tolterodine] .
104

Param item = CCCCCCCCCCCCCCCCCCN(CCCCCCCCCCCCCCCCCC)CCCN(CCO)CCO [avridine] ; retrieve measured cell viability.
109

Reported cell viability, molecule O=c1cc(N2CCOCC2)oc2c1ccc1ccccc12 [NU-7026] : ____
106

# input molecule: C[C@H](Oc1cc(-c2cnn(C3CCNCC3)c2)cnc1N)c1c(Cl)ccc(F)c1Cl [crizotinib-(S)] ; wanted: its cell viability
100

Any idea what its cell viability is? The molecule is NC(=O)N1c2ccccc2CC(=O)c2ccccc21 [oxcarbazepine]
90.8

Consider the molecule O=C1C2CC=CCC2C(=O)N1SC(Cl)(Cl)Cl (centres undefined) [captan] and give its measured cell viability.
101

May I ask what cell viability has been recorded for COc1ccc(CN2C(=O)C(=O)c3cc(OC(F)(F)F)ccc32)cc1 ?
97.7

Looking for the measured cell viability of CC1CCN(CC[C@H]2CCCN2S(=O)(=O)c2cccc(O)c2)CC1 , can you help?
91.9

Which cell viability is listed for Cn1ncc(Cl)c1-c1cc(C(=O)N[C@H](CN)Cc2ccc(F)c(F)c2)oc1Cl [uprosertib] ?
101

----------
tested on: HepG2; assay: cell viability relative to DMSO; higher = less toxic; conditions: 72 h; 1 nM
Answer each item with its documented cell viability.
Just the number please, in %, no unit attached.

# get_value(readout= cell viability, system= HepG2) for CCN1CCCC(OC(=O)C(c2ccccc2)c2ccccc2)C1 (centres undefined) [piperidolate]
105

Notebook entry, HepG2 assay: cell viability of COc1ccc(-c2sc(NC(=O)C(C)(C)C)nc2C)cc1S(=O)(=O)Nc1ccc(O)cc1 = ?
105

Which cell viability is reported with HepG2 for this entry: FC(F)(F)c1ccc(N2CCNCC2)nc1Cl ?
108

GET /values?readout=cell viability&system=HepG2&item= O=C(O)CNC(=O)c1ccccc1
100

Lab note: need cell viability with HepG2 for entry CCCCCCOC(=O)NC(=N)c1ccc(NCc2nc3cc(C(=O)N(CCC(=O)OCC)c4ccccn4)ccc3n2C)cc1 [dabigatran-etexilate] , please look it up.
91.6

Can you look up cell viability on HepG2 for O=C(CCc1ccc(O)cc1)c1c(O)cc(O)cc1O[C@@H]1O[C@H](CO)[C@@H](O)[C@H](O)[C@H]1O ?
107

Notebook entry, HepG2 assay: cell viability of O=C(O[C@@H]1Cc2c(O)cc(O)cc2O[C@@H]1c1cc(O)c(O)c(O)c1)c1cc(O)c(O)c(O)c1 [epigallocatechin-gallate-(-)] = ?
101

Reported cell viability for HepG2, given N[C@@H](C[C@@H](F)C(=O)O)C(=O)O ?
96.2

Reported cell viability for HepG2, given O[C@@H]1CO[C@H]2[C@@H]1OC[C@@H]2O [isosorbide] ?
93.4

----------
Exercise: state measured cell viability for each of the compounds provided.
test system: Calu-3; test: cell viability relative to DMSO; higher = less toxic; details: 72 h; 1 nM
A complete answer gives the number and then names the unit.

Sample C[C@]12CC[C@@H]3c4ccc(O)cc4CC[C@H]3[C@@H]1CC[C@@H]2OC(=O)CCC1CCCC1 [estradiol-cypionate] — what was its cell viability?
82%

Item COc1cc(N)c(Cl)cc1C(=O)OCCN1CCCCC1 has what recorded cell viability?
93.8%

Please look up its cell viability: Cc1ccc(-n2nc(C(C)(C)C)cc2NC(=O)Nc2ccc(OCCN3CCOCC3)c3ccccc23)cc1 [doramapimod]
114%

Given C/C(=N\NC(=O)C(NC(=O)c1ccccc1)c1n[nH]c(=O)c2ccccc12)c1cccc(Br)c1 (centres undefined) , state its recorded cell viability.
95.7%

----------
tested on: Calu-3; assay: drug sensitivity score (DSS) for viability; higher = more toxic; extreme values may be limits of the assay; conditions: 72 h
Please go through the items and note down their drug sensitivity score.

For the record CC(=O)N(C)c1cccc(-c2ccnc3c(C(=O)c4cccs4)cnn23)c1 , what value of drug sensitivity score is listed for Calu-3?
0

So what drug sensitivity score did Cc1c(N)c(=O)n(-c2ccccc2)n1C get with Calu-3?
0

Requested read-out drug sensitivity score, target or system Calu-3, entry CC(=O)N1CCN(C)CC1
0

Give drug sensitivity score (Calu-3) of the following compound: CCOC(=O)NNc1nncc2ccccc12
0

Lab request: please report drug sensitivity score under test system Calu-3 for CCN[C@H]1C[C@H](C)S(=O)(=O)c2sc(S(N)(=O)=O)cc21 [dorzolamide]
0

Notebook: pull reported drug sensitivity score for Calu-3, entry C[C@@H]1CC[C@@]2(OC1)O[C@H]1C[C@H]3[C@@H]4CC=C5C[C@@H](O[C@@H]6O[C@H](CO)[C@@H](O[C@@H]7O[C@@H](C)[C@H](O)[C@@H](O)[C@H]7O)[C@H](O)[C@H]6O[C@@H]6O[C@@H](C)[C@H](O)[C@@H](O)[C@H]6O)CC[C@]5(C)[C@H]4CC[C@]3(C)[C@H]1[C@@H]2C
8.7

Requested read-out drug sensitivity score, target or system Calu-3, entry O=C(O)C1(C(=O)O)CCC1.[NH2-].[NH2-].[Pt+2]
0

Give the reported drug sensitivity score for CCc1cccc2c3c([nH]c12)C(CC)(CC(=O)O)OCC3 (stereo not drawn) (system: Calu-3).
0

----------
test system: Caco-2; assay: cell viability relative to DMSO; higher = less toxic; conditions: 72 h; 10000 nM
Please go through the items and note down their cell viability.
For clarity, give the value followed by its unit.

So what's the measured cell viability for this one? NCCCNCCCCNCCCN
96.7%

May I ask what cell viability has been recorded for CC/C(=C(/CC)c1ccc(OP(=O)(O)O)cc1)c1ccc(OP(=O)(O)O)cc1 ?
104%

// query cell viability value for entry Nc1nccc(Oc2ccc(NC(=O)c3cn(COP(=O)(O)O)cc(-c4ccc(F)cc4)c3=O)cc2F)c1Cl
90.2%

I'd like to know its cell viability. The compound in question is O=C(O)c1ccc(OCCn2ccnc2)cc1
101%

Need cell viability of COc1cc2nc(N3CCN(C(=O)c4ccco4)CC3)nc(N)c2cc1OC , thanks.
92.5%

Look at this compound and give its reported cell viability. C/C1=C/C[C@@H](/C(C)=C/c2csc(C)n2)OC(=O)C[C@H](O)C(C)(C)C(=O)[C@H](C)[C@@H](O)[C@@H](C)CCC1
56.9%

Give its cell viability value. Item: Cc1cccc(C(C)c2c[nH]cn2)c1C (centres undefined)
99.1%

# lookup: cell viability of O=S(=O)(NCCNC/C=C/c1ccc(Br)cc1)c1cccc2cnccc12
89.6%

Request the reported cell viability associated with NC(=O)C(c1ccccc1)(c1ccc(F)cc1)c1ccc(F)cc1
99.4%

----------
Provide the reported cell viability of each item.
tested on: Caco-2; assay: cell viability relative to DMSO; higher = less toxic; conditions: 72 h; 1 nM
Counter-ions that a name gives are not always drawn.
Field: numeric (%). Do not append units.

// cell viability lookup, key: CC[C@@]1(O)C(=O)OCc2c1cc1n(c2=O)Cc2cc3c(CN(C)C)c(O)ccc3nc2-1 [topotecan]
97.7

Would you kindly share the measured cell viability for CCCCCCCCCCCCCCCCCCN(CCCCCCCCCCCCCCCCCC)CCCN(CCO)CCO [avridine] ?
106

For the compound shown here, CC(=O)N1CCC(C(=O)N(CCCN2CCC(Cc3ccc(C(N)=O)cc3)CC2)c2ccc(C)c(Cl)c2)CC1 [TAK-220] , give the reported cell viability.
85.2

# lookup: cell viability of CN[C@H]1CC[C@@H](c2ccc(Cl)c(Cl)c2)c2ccccc21 [SERTRALINE HYDROCHLORIDE]
99.2

Which cell viability value is on record for O=C(O)CNC(=O)c1ccccc1 [hippuric-acid] ?
96.9

Data request, read-out cell viability, for O=C(/C=C/c1ccc2ccccc2n1)c1ccncc1 [PFK-015]
93.3

So what does the record say about cell viability for O=C(Nc1ccc(S(=O)(=O)Nc2ccccc2Cl)c(Cl)c1)c1ccccn1 ?
95.7

Fill in: cell viability of CC1(C)[C@@H](OC(=O)CCC(=O)O)CC[C@]2(C)[C@H]3C(=O)C=C4[C@@H]5C[C@@](C)(C(=O)O)CC[C@]5(C)CC[C@@]4(C)[C@]3(C)CC[C@@H]12 [CARBENOXOLONE SODIUM] is ___
94.4

----------
system: A549-ACE2 infected with SARS-CoV-2; assay: morphology score (similarity to uninfected cells); higher = more like uninfected cells; settings: 30 µM; 24 h
Provide the recorded morphology score for the entries that follow.
Number only, please.

So what does the record say about morphology score for COc1ccc2nc3c(c(N)c2c1)CCCC3 ?
0.76

State the recorded morphology score for this entry: CN(C(=O)Cc1ccc(Cl)c(Cl)c1)[C@H](CN1CCCC1)c1ccccc1
0.1

Query (compound): CC(C)(C)c1ccc(C(=O)CCCN2CCC(OC(c3ccccc3)c3ccccc3)CC2)cc1 ; field requested: morphology score
0.25

Given the compound NC(=O)c1noc([C@H](CCCC2CCCCC2)CC(=O)NO)n1 , what is its reported morphology score?
0.25
